- Target: OsSMF1 (Oryza sativa, UniProt Q6ZLB0 1-436)
- Sequence: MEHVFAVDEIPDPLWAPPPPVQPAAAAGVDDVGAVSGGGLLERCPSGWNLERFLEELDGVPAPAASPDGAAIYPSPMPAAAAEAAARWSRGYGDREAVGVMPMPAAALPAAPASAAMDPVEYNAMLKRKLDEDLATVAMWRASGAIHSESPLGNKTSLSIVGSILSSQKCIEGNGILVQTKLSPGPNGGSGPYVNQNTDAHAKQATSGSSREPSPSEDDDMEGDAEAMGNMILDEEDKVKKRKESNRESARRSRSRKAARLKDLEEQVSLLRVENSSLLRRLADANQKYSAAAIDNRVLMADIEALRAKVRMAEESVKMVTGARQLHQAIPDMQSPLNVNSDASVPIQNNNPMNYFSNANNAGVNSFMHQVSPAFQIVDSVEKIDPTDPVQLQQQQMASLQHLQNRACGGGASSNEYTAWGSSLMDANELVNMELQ
- Test method notes: protein-binding microarray (RPBM); PBS, 2% BSA, 51.3 ng/ul salmon testes DNA, 50 uM zinc acetate, 200 nM TF, 25 C, 1 h; high values mean tight binding
- Experimental conditions: protein: recombinant; tags: N-terminal polyhistidine and DsRed monomer fusion (pET32a); chain copies: 2; label: CyDye5-dUTP incorporated in the synthesized complementary strand; 3' TTTTT single-stranded linker to array surface; dsDNA, one strand shown
In all, about 39,000 sequences were measured (“fluorescence intensity (a.u.)”: median about 4,300, highest 2% from about 39,000 on). Only a selection was taken, and the highest values are over-represented in it overall.
Answer each item with its documented binding signal.

Solved entries (count: 5):
>  <Residue codes>
CACGCCAACGCCCAAGCCCACCAACCCAAGTTGAGTCGTGCGGAGTCACCTAGTGCAG

>  <Measurement>
3360 fluorescence intensity (a.u.)

$$$$
>  <Residue codes>
CTCCGTTGTGCTCTGTCTCTCTACCGCCACCATCCACTGCCGGAGTCACCTAGTGCAG

>  <Measurement>
39200 fluorescence intensity (a.u.)

$$$$
>  <Residue codes>
ATCGTGATGCAAATGTCGAACTTGGAAGATATCCATGGATCGGAGTCACCTAGTGCAG

>  <Measurement>
39000 fluorescence intensity (a.u.)

$$$$
>  <Residue codes>
CCAATATATAATTGCCACGTCATCGCCGCGTCAATGCCACCGGAGTCACCTAGTGCAG

>  <Measurement>
28100 fluorescence intensity (a.u.)

$$$$
>  <Residue codes>
GTCGGATCCCCGCGCAATCATACACACGTGTCGCCGTCGCCGGAGTCACCTAGTGCAG

>  <Measurement>
8730 fluorescence intensity (a.u.)

$$$$

I would be grateful if you could provide binding signal for each of the following entries.
1. CCGGATCGAATTGCCACGTAAGCGTCACGTCACTGCCACACGGAGTCACCTAGTGCAG
2. AAACTGGCAAACGCGTCACATGAGTTTTACCTACCAATGTCGGAGTCACCTAGTGCAG
3. TCGGATCGAATTGCCACGTAAGCGCCACGTCGATGCCACACGGAGTCACCTAGTGCAG
4. ATCGAATTGTCACGTAAGCGCCACGTCAATGCTACGTCAGCGGAGTCACCTAGTGCAG
5. ATAGAGATCACAGTCACACACATATGGCCTGTGCATTTACCGGAGTCACCTAGTGCAG

a:
1. 17100 fluorescence intensity (a.u.)
2. 3230 fluorescence intensity (a.u.)
3. 33000 fluorescence intensity (a.u.)
4. 26100 fluorescence intensity (a.u.)
5. 3720 fluorescence intensity (a.u.)

I would be grateful if you could provide binding signal for each of the following entries.
1. CACGTGTTTTCTCGATGTCCACGTGGTGATGTGGAATTGTCGGAGTCACCTAGTGCAG
2. ACATCATGCCACATGCTTCCAAGAAGGATCCCATAGATGTCGGAGTCACCTAGTGCAG
3. TTTTCGATATATAATTGCCACGTAAGCGTCACGTCAATGCCGGAGTCACCTAGTGCAG
4. TTGTCCATCAATGGAGATGATGATGCCATGATCAAATGATCGGAGTCACCTAGTGCAG
5. CTGGATCGAATTGCCACGTAAGCGCCACGTCAGTGCCACACGGAGTCACCTAGTGCAG

a:
14800 fluorescence intensity (a.u.)
4220 fluorescence intensity (a.u.)
34300 fluorescence intensity (a.u.)
3370 fluorescence intensity (a.u.)
20700 fluorescence intensity (a.u.)

I would be grateful if you could provide binding signal for each of the following entries.
1. CGAGATATAATTGCCATGTCATTGCCACGTCAATGTCACGCGGAGTCACCTAGTGCAG
2. GCTCGAATTGCCACGTAAGCGCCACGTCAATGCCACGTCACGGAGTCACCTAGTGCAG
3. GCTGAGATATAGTTGCCACGTAAGCGCCACGTCAATGCTACGGAGTCACCTAGTGCAG

a:
["49600 fluorescence intensity (a.u.)", "65500 fluorescence intensity (a.u.)", "33000 fluorescence intensity (a.u.)"]

q: Quick one: binding signal for ACACTTATCGACGTGCCAGCGCGACGCAATATGCTCCGATCGGAGTCACCTAGTGCAG ?
a: 5400 fluorescence intensity (a.u.)

---

- Target: OsSMF1 (Oryza sativa, UniProt Q6ZLB0 1-436)
- Sequence: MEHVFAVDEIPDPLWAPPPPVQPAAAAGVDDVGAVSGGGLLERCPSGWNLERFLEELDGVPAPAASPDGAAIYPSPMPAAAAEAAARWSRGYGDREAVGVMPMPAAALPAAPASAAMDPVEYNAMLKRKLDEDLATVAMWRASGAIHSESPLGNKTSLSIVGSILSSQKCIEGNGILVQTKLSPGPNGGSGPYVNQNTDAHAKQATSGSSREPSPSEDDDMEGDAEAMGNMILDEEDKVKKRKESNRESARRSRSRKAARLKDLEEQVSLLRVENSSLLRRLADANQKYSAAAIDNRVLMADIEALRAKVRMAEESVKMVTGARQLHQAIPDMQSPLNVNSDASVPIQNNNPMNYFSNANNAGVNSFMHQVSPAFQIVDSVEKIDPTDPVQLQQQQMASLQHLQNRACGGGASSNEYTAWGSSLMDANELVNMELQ
- Test method notes: protein-binding microarray (RPBM); PBS, 2% BSA, 51.3 ng/ul salmon testes DNA, 50 uM zinc acetate, 200 nM TF, 25 C, 1 h; high values mean tight binding
- Experimental conditions: protein: recombinant; tags: N-terminal polyhistidine and DsRed monomer fusion (pET32a); chain copies: 2; label: CyDye5-dUTP incorporated in the synthesized complementary strand; 3' TTTTT single-stranded linker to array surface; dsDNA, one strand shown
In all, about 39,000 sequences were measured (“fluorescence intensity (a.u.)”: median about 4,300, highest 2% from about 39,000 on). Shown is part of a subset that was picked to be rich in the highest values.
Value kind: binding signal

Solved entries (count: 4):
>  <Residue codes>
CGAAGCGGTTCAGGAAGATGGAGCGGCACGTGGCTGCGACCGGAGTCACCTAGTGCAG

>  <Measurement>
5240 fluorescence intensity (a.u.)

$$$$
>  <Residue codes>
TTTTGGATTCCCTTTTCATCCATGGATGCATGTGTTCCTTCGGAGTCACCTAGTGCAG

>  <Measurement>
3220 fluorescence intensity (a.u.)

$$$$
>  <Residue codes>
CGATGAGCACCGCAGCGATTGACATATTGCAATATCGTTCCGGAGTCACCTAGTGCAG

>  <Measurement>
3550 fluorescence intensity (a.u.)

$$$$
>  <Residue codes>
GCGGAGCCGACGCGGCGGCGATGCTCGGCCGCGTGGCGGTCGGAGTCACCTAGTGCAG

>  <Measurement>
3840 fluorescence intensity (a.u.)

$$$$

Then this sequence:
q: Quick one: binding signal for TACTAGTGTGGACATGTTCCCCTTTTCAGGAAGATGGCAGCGGAGTCACCTAGTGCAG ?
a: 40300 fluorescence intensity (a.u.)

---

- Target: OsSMF1 (Oryza sativa, UniProt Q6ZLB0 1-436)
- Sequence: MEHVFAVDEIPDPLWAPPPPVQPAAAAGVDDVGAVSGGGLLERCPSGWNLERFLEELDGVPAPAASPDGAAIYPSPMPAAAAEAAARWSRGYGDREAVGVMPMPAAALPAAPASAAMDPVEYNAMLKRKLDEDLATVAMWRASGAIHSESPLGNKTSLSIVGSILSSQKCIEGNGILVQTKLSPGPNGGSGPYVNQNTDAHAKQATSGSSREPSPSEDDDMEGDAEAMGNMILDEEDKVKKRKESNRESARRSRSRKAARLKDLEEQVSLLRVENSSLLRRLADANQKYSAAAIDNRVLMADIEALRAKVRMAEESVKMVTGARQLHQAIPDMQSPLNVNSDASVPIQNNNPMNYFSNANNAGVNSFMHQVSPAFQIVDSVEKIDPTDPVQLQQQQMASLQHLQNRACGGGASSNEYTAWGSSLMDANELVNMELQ
- Test method notes: protein-binding microarray (RPBM); PBS, 2% BSA, 51.3 ng/ul salmon testes DNA, 50 uM zinc acetate, 200 nM TF, 25 C, 1 h; high values mean tight binding
- Experimental conditions: protein: recombinant; tags: N-terminal polyhistidine and DsRed monomer fusion (pET32a); chain copies: 2; label: CyDye5-dUTP incorporated in the synthesized complementary strand; 3' TTTTT single-stranded linker to array surface; dsDNA, one strand shown
In all, about 39,000 sequences were measured (“fluorescence intensity (a.u.)”: median about 4,300, highest 2% from about 39,000 on). The list comes from a sample in which the highest values are over-represented; it also holds close analogues and randomly drawn sequences.
Value kind: binding signal

>  <Residue codes>
CACCCAAGAACCGGTGGTATTCTTTGGACACGAGAACTTTCGGAGTCACCTAGTGCAG

>  <binding signal>
39100 fluorescence intensity (a.u.)

$$$$

I would be grateful if you could provide binding signal for each of the following entries.
1. GGTAATAGTGTCAACATATTGCATTAAGATGATTGCAGTGCGGAGTCACCTAGTGCAG
2. GTGTGATTATCTTCTCCATACCATCTCGTGCTACATGCGCCGGAGTCACCTAGTGCAG
3. ACCATCTCTCTCTCTCTCTCTGCATGCATATCTTCTCCTCCGGAGTCACCTAGTGCAG
4. TATGAACACATATGTAGCATACGCTTAAATAGACGAAGACCGGAGTCACCTAGTGCAG
5. TATAAGCACAATGCAGCCTAGTTGTTGCCGTGACCTGAGTCGGAGTCACCTAGTGCAG
6. CCATGTTCCCAACCCCTCTCCCTCATTTTCCACGCGTATGCGGAGTCACCTAGTGCAG

a:
1: 24300 fluorescence intensity (a.u.); 2: 40000 fluorescence intensity (a.u.); 3: 3210 fluorescence intensity (a.u.); 4: 40500 fluorescence intensity (a.u.); 5: 3180 fluorescence intensity (a.u.); 6: 3650 fluorescence intensity (a.u.)

I would be grateful if you could provide binding signal for each of the following entries.
1. CATTGGTGGCGTAATGTGGTTGTTAGTGATTTGTTGCACCCGGAGTCACCTAGTGCAG
2. CTTCTTCGGGCCTTCTTTCAGAACTTTGGGTGGGCCTCACCGGAGTCACCTAGTGCAG

a:
1. 3460 fluorescence intensity (a.u.)
2. 64300 fluorescence intensity (a.u.)
